For each record, write down the corresponding pKd.
Molecular target: MAGI2_4, Q86UL8
Sequence (Q86UL8 772-865): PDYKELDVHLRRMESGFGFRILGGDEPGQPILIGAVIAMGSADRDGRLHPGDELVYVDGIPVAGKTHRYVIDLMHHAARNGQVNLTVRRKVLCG
Assay: holdup assay
Design: key: below the threshold = too weak to quantify, mostly under pKd 3.1 to 4
Details: plain residues with an end cap or a label only (N-terminal biotin on a linker: ado-ado)
One number for each entry.

>  <Binder>
SLNANEVEWF [RNF130, Q86XS8]

>  <Numeric Result>
3.94

$$$$

Next item in the queue.
### Prompt Look at this binder and give its reported pKd. PPGKHLVTEV [KCNA7, Q96RP8]
### Response 4.48
